tgt: IAPP (Homo sapiens)
testDetails: Circular dichroism analysis of IAPP-associated fibril formation (Example 7)
Format: biochemical
Design: add 10 μL of 10 mg/mL IAPP stock solution (final 100 ng peptide)
studyConditions: molar ratio 1:5 peptide:compound; 48 h
experimentalReadout: Conformation at 48 h

As a guide, the following entries are already answered.
>>> valuemeasured("O=S(=O)(O)CCCNCCCO")
"β"
>>> valuemeasured("O=S(=O)(O)NC1CCCCC1")
"β"
>>> valuemeasured("Cl.c1ccc2c(c1)CCNC2")
"β"
>>> valuemeasured("COc1ccc(S(=O)(=O)O)c2cccnc12")
"β"
>>> valuemeasured("CN(C)CCCS(=O)(=O)O")
"β"
>>> valuemeasured("O=S(=O)(O)CCCN1CC=C(c2ccccc2)CC1")
"β"

Give the measured Conformation at 48 h of N[C@@H](COP(=O)(O)O)C(=O)O .
β

====

tgt: IAPP (Homo sapiens, UniProt P10997)
Sequence (P10997 34-70 limits assumed): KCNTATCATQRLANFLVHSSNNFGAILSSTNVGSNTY
testDetails: Circular dichroism analysis of IAPP-associated fibril formation (Example 7)
Format: biochemical
Set-up: add 10 μL of 10 mg/mL IAPP stock solution (final 100 ng peptide)
studyConditions: molar ratio 1:5 peptide:compound; 48 h; more positive = less β-sheet
Experimental: Circular dichroism analysis was conducted to confirm the activity of certain therapeutic compounds in preventing or inhibiting IAPP-associated fibril formation in accordance with the present disclosure by determining the presence or absence of […] conformation. […] Make fresh 1 mg/mL stock solution of IAPP in 10 mM phosphate buffer, pH 7. […] The pH of the final assay solution is measured to ensure there is no fluctuation and the spectrum is accumulated using the parameters as shown above. […]
experimentalReadout: CD at 48 h (mdegs)
Give bare numbers, in mdegs.

// solved cases for CD at 48 h follow
>>> valuemeasured("O=S(=O)(O)NC1CCCCC1 [LVXI, cyclohexylsulfamic acid]")
"−0.8"
>>> valuemeasured("N[C@@H](COP(=O)(O)O)C(=O)O [LVXII, O-phospho-L-serine]")
"−2.0"
>>> valuemeasured("O=S(=O)(O)CCCN1CC=C(c2ccccc2)CC1 [LVXV]")
"−1.8"
>>> valuemeasured("COc1ccc(S(=O)(=O)O)c2cccnc12 [LVXIV, 8-methoxyquinoline-5-sulfonic acid]")
"−0.8"
>>> valuemeasured("O=S(=O)(O)CCCNCCCO [LVX]")
"−1.7"

# batch size: 2; output CD at 48 h per entry
1. Cl.c1ccc2c(c1)CCNC2 [LVIX]
2. CN(C)CCCS(=O)(=O)O [LVXVII, 3-dimethylamino-1-propanesulfonic acid]

1. −1.3
2. −1.5

====

tgt: Aβ(1-40) (Homo sapiens, UniProt P05067)
Construct: Prepare a fresh 40 μm solution of Aβ(1-40) in 0.02M Tris, pH 7.4; made in house; host or cells: chemical synthesis (FMOC), HPLC purified
Sequence (P05067 672-711 limits assumed): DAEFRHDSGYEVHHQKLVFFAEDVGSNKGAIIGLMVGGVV
testDetails: Circular dichroism analysis, pre-incubation assay, β-sheet at 218 nm
Assay type: biochemical
studyConditions: 19 h; CD 218 nm; 0.02M Tris pH 7.4
experimentalReadout: relative inhibition compared to Aβ alone, incubation time 19 h

Example results:
>>> valuemeasured("O=S(=O)(O)CCCN1CCc2ccccc2C1 [XVII]")
"+ (+: 0-25%)"
>>> valuemeasured("CC(=O)NCCCS(=O)(=O)O [VIII, 3-acetylamino-1-propanesulfonic acid]")
"++++ (++++: 75-100%)"
>>> valuemeasured("O=C(NCCCS(=O)(=O)O)c1ccccc1 [X, 3-benzoylamino-1-propanesulfonic acid]")
"++ (++: 25-50%)"
>>> valuemeasured("N[C@@H](Cc1cccc(CS(=O)(=O)O)c1)C(=O)O [LVXIII, 3-Sulfomethyl-L-phenylalanine]")
"++++ (++++: 75-100%)"
>>> valuemeasured("O=S(=O)(O)CCCN1CC=C(c2ccccc2)CC1 [LVXV]")
"++++ (++++: 75-100%)"

Report relative inhibition compared to Aβ alone, incubation time 19 h for every entry below.
1. O=S(=O)(O)CCCN1CCc2ccccc21 [VII, 3-(1-indolinyl)-1-propanesulfonic acid]
2. O=S(=O)(O)CCCN1CCCc2ccccc21 [III]

++ (++: 25-50%)
+ (+: 0-25%)

Value sought for every listed compound: relative inhibition compared to Aβ alone, incubation time 19 h.
1. NCC(O)CS(=O)(=O)O (stereo not shown) [LVXVI, 3-amino-2-hydroxy-1-propanesulfonic acid]
2. COc1ccc2c(c1)CCN(CCCS(=O)(=O)O)C2 [IX]
3. CC(CCCO)NCCCS(=O)(=O)O (stereo not shown) [XXXVIII]

["+++ (+++: 50-75%)", "+++ (+++: 50-75%)", "+++ (+++: 50-75%)"]

====

tgt: splenic Amyloid A fibrils (Mus musculus)
Construct: from tissue; host or cells: spleen of CBA/J mice (AEF/AgNO3-induced amyloidosis)
Sequence (P05367 20-95 limits assumed): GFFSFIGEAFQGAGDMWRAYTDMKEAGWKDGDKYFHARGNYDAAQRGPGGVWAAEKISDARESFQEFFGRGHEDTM
testDetails: Acute AEF-AgNO3-induced amyloidosis mouse model (secondary amyloidosis)
Assay type: in vivo, mice
studyConditions: 6.25 mg/ml in drinking solution, 5 days
experimentalReadout: % PC (splenic AA fibrils, % of positive control) (% PC)
Give bare numbers, in % PC.

>>> valuemeasured("O=S(=O)(O)CCCN1CCC2=C(CCCC2)C1")
86
>>> valuemeasured("COc1cc2c(cc1OC)CN(CCCS(=O)(=O)O)CC2")
87
>>> valuemeasured("O=C[C@H](NCCCS(=O)(=O)O)[C@@H](O)[C@H](O)[C@H](O)CO")
94

Returns the measured % PC (splenic AA fibrils, % of positive control) for the input molecule. Input: O=S(=O)(O)CCCN1CCCc2ccccc21
87

====

tgt: IAPP (Homo sapiens, UniProt P10997)
testDetails: Circular dichroism analysis of IAPP-associated fibril formation (Example 7)
Assay type: biochemical
Set-up: add 10 μL of 10 mg/mL IAPP stock solution (final 100 ng peptide)
studyConditions: molar ratio 1:5 peptide:compound; 24 h
experimentalReadout: Conformation at 24 h

>>> valuemeasured("CN(C)CCCS(=O)(=O)O")
"β"
>>> valuemeasured("Cl.c1ccc2c(c1)CCNC2")
"β"
>>> valuemeasured("O=S(=O)(O)NC1CCCCC1")
"β"
>>> valuemeasured("O=S(=O)(O)CCCNCCCO")
"Random"
>>> valuemeasured("COc1ccc(S(=O)(=O)O)c2cccnc12")
"β"

State recorded Conformation at 24 h for all listed compounds.
1. N[C@@H](COP(=O)(O)O)C(=O)O
2. O=S(=O)(O)CCCN1CC=C(c2ccccc2)CC1

1. Random
2. Random
